The reported numbers originate from the supplement of paper PMC8967900.

Test system: NALM-6
Experiment: selective drug sensitivity score (sDSS, relative to normal bone marrow) (sDSS (score)); higher = more potent and effective on the cell line relative to normal bone marrow cells;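 further: ALL cell lines in 384-well plates, five doses spanning 10,000-fold, each plate scaled between vehicle and 100 µmol/L benzalkonium chloride controls, sDSS an adapted area-under-curve metric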
Settings: 72 h
selective drug sensitivity score values by entry
Value Type: selective drug sensitivity score

[
  {
    "Molecule": "Cn1cnc2c(F)c(Nc3ccc(Br)cc3Cl)c(C(=O)NOCCO)cc21 [Selumetinib] (top concentration 10000 nM)",
    "Readout Number": 5
  },
  {
    "Molecule": "CN1CCN(C2CCN(C(=O)Nc3cc(Oc4ccc(NC(=O)C5(C(=O)Nc6ccc(F)cc6)CC5)c(F)c4)ccn3)CC2)CC1 [Golvatinib] (top concentration 2500 nM)",
    "Readout Number": 1.06
  },
  {
    "Molecule": "Clc1ccc(C(c2ccccc2Cl)C(Cl)Cl)cc1 (stereo not drawn) [Mitotane] (top concentration 10000 nM)",
    "Readout Number": -0.08
  },
  {
    "Molecule": "CN1C(=O)N[C@H](Cc2c[nH]c3c(Cl)cccc23)C1=O [Necrostatin_2] (top concentration 10000 nM)",
    "Readout Number": -0.08
  },
  {
    "Molecule": "O=C1CCC(N2C(=O)c3ccccc3C2=O)C(=O)N1 (stereo not drawn) [Thalidomide] (top concentration 10000 nM)",
    "Readout Number": -0.14
  },
  {
    "Molecule": "C[C@H]1C=C2C(=O)O[C@H]3CC[C@@H](C1)[C@@]23O [Galiellalactone] (top concentration 25000 nM)",
    "Readout Number": 5.16
  },
  {
    "Molecule": "CC(C)Oc1ccc(-c2nn([C@@H](C)c3oc4ccc(F)cc4c(=O)c3-c3cccc(F)c3)c3ncnc(N)c23)cc1F [TGR-1202] (top concentration 2500 nM)",
    "Readout Number": -1.16
  },
  {
    "Molecule": "CCCCOc1nc(N)c2c(n1)N(Cc1cccc(CN3CCCC3)c1)CC(=O)N2 [Vesatolimod] (top concentration 10000 nM)",
    "Readout Number": -3.52
  },
  {
    "Molecule": "O=C(Nc1cccc(NC(=O)c2cccc(O)c2O)c1)c1cccc(O)c1O [MST-312] (top concentration 10000 nM)",
    "Readout Number": 9.5
  },
  {
    "Molecule": "COCCNCc1ccc(-c2cc3nccc(Oc4ccc(NC(=O)C5(C(=O)Nc6ccc(F)cc6)CC5)cc4F)c3s2)nc1 [Sitravatinib] (top concentration 2500 nM)",
    "Readout Number": -0.12
  },
  {
    "Molecule": "COc1cc2c(Nc3ccc(Cl)c(Cl)c3F)ncnc2cc1OC[C@@H]1C[C@@H]2CN(C)C[C@@H]2C1 [Tesevatinib] (top concentration 1000 nM)",
    "Readout Number": -0.16
  },
  {
    "Molecule": "O=C(Nc1cc(Cl)cc2c1[nH]c1cnccc12)c1cccnc1 [PS-1145] (top concentration 25000 nM)",
    "Readout Number": -0.46
  },
  {
    "Molecule": "O=C(NCc1ccncc1)C12CC3CC(C1)CC(c1ccc(Cl)cc1)(C3)C2 (top concentration 50000 nM)",
    "Readout Number": -0.22
  }
]

----------
Test system: MHH-CALL-2
Assay: selective drug sensitivity score (sDSS, relative to normal bone marrow) (sDSS (score)); higher = more potent and effective on the cell line relative to normal bone marrow cells
Details: 72 h
Tick 1.0 if selective drug sensitivity score is 7 or greater. Tick 0.0 if selective drug sensitivity score is less than 7.

[
  {
    "Compound": "CC(C)(C)c1nc(-c2cccc(NS(=O)(=O)c3c(F)cccc3F)c2F)c(-c2ccnc(N)n2)s1 [Dabrafenib] (top concentration 2500 nM)",
    "Class": 1.0
  },
  {
    "Compound": "CCS(=O)(=O)Nc1ccc(Oc2ccc(F)cc2F)c(-c2cn(C)c(=O)c3[nH]ccc23)c1 [Mivebresib] (top concentration 10000 nM)",
    "Class": 1.0
  },
  {
    "Compound": "O=C1CCC(N2C(=O)c3ccccc3C2=O)C(=O)N1 (stereo unspecified) [Thalidomide] (top concentration 10000 nM)",
    "Class": 0.0
  },
  {
    "Compound": "C#Cc1cccc(Nc2ncnc3cc(OCCOC)c(OCCOC)cc23)c1 [Erlotinib] (top concentration 10000 nM)",
    "Class": 0.0
  },
  {
    "Compound": "O=C(Nc1cccc(NC(=O)c2cccc(O)c2O)c1)c1cccc(O)c1O [MST-312] (top concentration 10000 nM)",
    "Class": 1.0
  },
  {
    "Compound": "COCCNCc1ccc(-c2cc3nccc(Oc4ccc(NC(=O)C5(C(=O)Nc6ccc(F)cc6)CC5)cc4F)c3s2)nc1 [Sitravatinib] (top concentration 2500 nM)",
    "Class": 0.0
  }
]

----------
System: RPMI-8402
Assay: selective drug sensitivity score (sDSS, relative to normal bone marrow) (sDSS (score)); higher = more potent and effective on the cell line relative to normal bone marrow cells
Settings: 72 h
# Lookup of reported selective drug sensitivity score keyed by entry

[
  {
    "Compound": "CC(C)N(CCCNC(=O)Nc1ccc(C(C)(C)C)cc1)C[C@H]1O[C@@H](n2cc(Br)c3c(N)ncnc32)[C@H](O)[C@@H]1O [SGC0946] (top concentration 10000 nM)",
    "Target": "RPMI-8402",
    "selective drug sensitivity score": 1.78
  },
  {
    "Compound": "Nc1nc(Nc2ccc3c(c2)CC[C@@H](N2CCCC2)CC3)nn1-c1cc2c(nn1)-c1ccccc1CCC2 [BGB324] (top concentration 10000 nM)",
    "Target": "RPMI-8402",
    "selective drug sensitivity score": 2.92
  },
  {
    "Compound": "CCC1(c2ccc(N)cc2)CCC(=O)NC1=O (stereo not given) [Aminoglutethimide] (top concentration 10000 nM)",
    "Target": "RPMI-8402",
    "selective drug sensitivity score": 0
  },
  {
    "Compound": "CN1CCN(C2CCN(C(=O)Nc3cc(Oc4ccc(NC(=O)C5(C(=O)Nc6ccc(F)cc6)CC5)c(F)c4)ccn3)CC2)CC1 [Golvatinib] (top concentration 2500 nM)",
    "Target": "RPMI-8402",
    "selective drug sensitivity score": 0.26
  },
  {
    "Compound": "CO[C@H]1C[C@@H]2CC[C@@H](C)[C@@](O)(O2)C(=O)C(=O)N2CCCC[C@H]2C(=O)O[C@H]([C@H](C)C[C@@H]2CC[C@@H](OCCO)[C@H](OC)C2)CC(=O)[C@H](C)/C=C(\\C)[C@@H](O)[C@@H](OC)C(=O)[C@H](C)C[C@H](C)/C=C/C=C/C=C/1C [Everolimus] (top concentration 100 nM)",
    "Target": "RPMI-8402",
    "selective drug sensitivity score": -0.7
  },
  {
    "Compound": "Nc1ncnc2c1c(-c1cccc(OCc3ccccc3)c1)cn2[C@H]1C[C@@H](CN2CCC2)C1 [NVP-AEW541] (top concentration 10000 nM)",
    "Target": "RPMI-8402",
    "selective drug sensitivity score": -1.32
  },
  {
    "Compound": "CCN(CC)CCNC(=O)c1c(C)[nH]c(/C=C2\\C(=O)Nc3ccc(-c4csc(-c5ccccc5)n4)cc32)c1C [Amcasertib] (top concentration 10000 nM)",
    "Target": "RPMI-8402",
    "selective drug sensitivity score": -1.5
  },
  {
    "Compound": "COc1cc(Nc2ncc3c(n2)-c2ccc(Cl)cc2C(c2c(F)cccc2OC)=NC3)ccc1C(=O)O [Alisertib] (top concentration 10000 nM)",
    "Target": "RPMI-8402",
    "selective drug sensitivity score": 10.2
  },
  {
    "Compound": "C[C@@]1(C(=O)Nc2ccc(F)nc2)CCCN1c1nc(Nc2cc(C3CC3)n[nH]2)c2cccn2n1 (top concentration 10000 nM)",
    "Target": "RPMI-8402",
    "selective drug sensitivity score": 5.58
  },
  {
    "Compound": "Cc1nc2cccc(N)c2c(=O)n1C1CCC(=O)NC1=O (stereo not given) [Avadomide (CC122)] (top concentration 10000 nM)",
    "Target": "RPMI-8402",
    "selective drug sensitivity score": 0
  },
  {
    "Compound": "CN1CCC(CNc2ccc3ncc(-c4cccc(OC(F)(F)F)c4)n3n2)CC1 [SGI-1776] (top concentration 10000 nM)",
    "Target": "RPMI-8402",
    "selective drug sensitivity score": -2.68
  },
  {
    "Compound": "CNC(=O)c1cccc(-c2ccc3c(N4CCOC[C@@H]4C)nc(N4CCOC[C@@H]4C)nc3n2)c1 [Vistusertib] (top concentration 10000 nM)",
    "Target": "RPMI-8402",
    "selective drug sensitivity score": 5.52
  },
  {
    "Compound": "COc1cc(Nc2ncc(F)c(Nc3ccc4c(n3)NC(=O)C(C)(C)O4)n2)cc(OC)c1OC [Tamatinib] (top concentration 10000 nM)",
    "Target": "RPMI-8402",
    "selective drug sensitivity score": 0.68
  },
  {
    "Compound": "COc1cc2c(NC3CCN(C(C)C)CC3)nc(C3CCCCC3)nc2cc1OCCCN1CCCC1 [UNC0638] (top concentration 10000 nM)",
    "Target": "RPMI-8402",
    "selective drug sensitivity score": -0.04
  },
  {
    "Compound": "Cc1ccc(NS(=O)(=O)c2cccc(C#N)c2)c2[nH]cc(C#N)c12 [E7820] (top concentration 50000 nM)",
    "Target": "RPMI-8402",
    "selective drug sensitivity score": 17.9
  },
  {
    "Compound": "COc1cc2ncnc(Nc3ccc(F)c(Cl)c3)c2cc1OCCCN1CCOCC1 [Gefitinib] (top concentration 10000 nM)",
    "Target": "RPMI-8402",
    "selective drug sensitivity score": 3.96
  },
  {
    "Compound": "CC(C)(C)c1nc(-c2cccc(NS(=O)(=O)c3c(F)cccc3F)c2F)c(-c2ccnc(N)n2)s1 [Dabrafenib] (top concentration 2500 nM)",
    "Target": "RPMI-8402",
    "selective drug sensitivity score": -1.12
  },
  {
    "Compound": "CC(C)Nc1cc(-c2c[nH]c(C(=O)N[C@H](CO)c3cccc(Cl)c3)c2)c(Cl)cn1 [Ulixertinib] (top concentration 10000 nM)",
    "Target": "RPMI-8402",
    "selective drug sensitivity score": -1.38
  },
  {
    "Compound": "CC(O)c1cc(C(=O)N[C@@H](C)Cn2ccc(-c3ccc(C#N)c(Cl)c3)n2)n[nH]1 (stereo not given in full) [ODM-201] (top concentration 2500 nM)",
    "Target": "RPMI-8402",
    "selective drug sensitivity score": 0.12
  },
  {
    "Compound": "Cc1c(-c2c(-c3ccc(F)o3)sc3ncnc(O[C@H](Cc4ccccc4OCc4ccnn4CC(F)(F)F)C(=O)O)c23)ccc(OCCN2CCN(C)CC2)c1Cl (top concentration 1000 nM)",
    "Target": "RPMI-8402",
    "selective drug sensitivity score": -4.54
  },
  {
    "Compound": "CN(C)C1CCN(C(=O)c2ccc(NC(=O)Nc3ccc(-c4nc(N5CCOCC5)nc(N5CCOCC5)n4)cc3)cc2)CC1 [Gedatolisib] (top concentration 1000 nM)",
    "Target": "RPMI-8402",
    "selective drug sensitivity score": 3.66
  },
  {
    "Compound": "C[C@@H]1COCCN1c1cc(C2([S@](C)(=N)=O)CC2)nc(-c2cc[nH]c3nccc2-3)n1 [AZD6738] (top concentration 25000 nM)",
    "Target": "RPMI-8402",
    "selective drug sensitivity score": 8.98
  },
  {
    "Compound": "O=c1[nH]c(=O)n([C@H]2C[C@H](O)[C@@H](CO)O2)cc1C(F)(F)F [Trifluridine] (top concentration 10000 nM)",
    "Target": "RPMI-8402",
    "selective drug sensitivity score": 15.5
  },
  {
    "Compound": "CCCCCCCCCCCCCCCCOP(=O)([O-])OCC[N+](C)(C)C [Miltefosine] (top concentration 100000 nM)",
    "Target": "RPMI-8402",
    "selective drug sensitivity score": 1.46
  },
  {
    "Compound": "CO[C@@H]1[C@H](N(C)C(=O)c2ccccc2)C[C@H]2O[C@]1(C)n1c3ccccc3c3c4c(c5c6ccccc6n2c5c31)C(=O)NC4 [Midostaurin] (top concentration 10000 nM)",
    "Target": "RPMI-8402",
    "selective drug sensitivity score": 3.66
  }
]
